tested on: THRa:RXRa (NR concentration 90 nM, RXRa partner concentration 90 nM); experiment: PBM binding z-score (relative to random genomic background probes); higher = stronger binding; sequences stand for … in GC…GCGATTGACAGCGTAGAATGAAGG
Assignment: determine reported PBM binding z-score for the given sequences.
Reply with just the number.

Documented PBM binding z-score of `AGAATGAGGTTATACTTAGATCAGGGAAGAAAGT` : 1.96

Recorded PBM binding z-score (sequence `CGTCCAAGGTCAACGTCAGTGAAAGAGACTCGAA` ): 4.04

PBM binding z-score reading for `CCTATTAGTTGACGATAAGGGCAACCGAAGCTCG` : 1.57

Field PBM binding z-score (entry `TCTTGTAGATCAATAGACGTTAAGAAAGTGCGCT` ) reads -0.347

Entry `GCTAGCAGGCCATTTGGGTCAGTCAATGACGGGC` — recorded PBM binding z-score = 0.812

PBM binding z-score reading for `CTACCAAGGTGAACAAGGTCGTTGACTACTATTC` : 3.49

Lab book: PBM binding z-score of `GGAACGAGGGCAACTTGATAGCAGAGTTTGATGG` noted as 1.26

Given item `CTCGAAATGTCGTGCTCAGGTGAGTATACCAAAC` , the value recorded as its PBM binding z-score is 1.53

Noted for `GCATACAGGTAATACAAGGTGAAAGTCCGATTGT` : its PBM binding z-score reads 4.17

Given item `TCAGGCAGGTGAAGGTAACTCAGGTACGCAGTCG` , the value recorded as its PBM binding z-score is 1.52

Recorded result, `TAGCCTAGGTCAGATCCGGCCAGTATACGCTATA` , PBM binding z-score: 3.4

Quick note, PBM binding z-score for `GCTATTCGTTGAAAGGGCAACCGAATGATTCTCG` landed at 0.348

* * *

tested on: RXRa homodimer (NR concentration 180 nM); assay: PBM binding z-score (relative to random genomic background probes); higher = stronger binding; sequences stand for … in GC…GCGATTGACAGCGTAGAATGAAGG
Field: PBM binding z-score. Provide a value for each of the sequences that follow.
// print number alone

`TAGCCTAGGTCATGCGGGCCAGTATTGTGTCGGC` yielded PBM binding z-score of 2.52

Sample `TTACCAAGGTGAGCTGAGGTCTTTGATCCAACTC` ; PBM binding z-score observed: 0.322

For reference, reported PBM binding z-score for `ATCTCTAGGTAAAGATAGTTGAGTGAATGCAAAT` stands at 0.0675

Entry `AGTCAAAGTTCATCGAGGTAACGTAAGATATGCT` ; PBM binding z-score = 4.87

Short answer for `GGAACAAGGGCAAAGTTGATAGCATCTGTCGACG` : PBM binding z-score was 1.27

Documented PBM binding z-score of `ACTAGTTGGTCAGCTGTGGTCACACACAATTCGG` : 0.281

Notebook: `GTACCAAGGAGAATAGGTCGTTGATGAGTAGGCG` , PBM binding z-score read as 0.654

Item: `ATCTATAGGTAACAAGTTCAGTGAAAGAGAGGAC` | PBM binding z-score: 1.19

Recorded result, `TCATATAGGTTAACAGGTGAAAGTCCGTAAGTTA` , PBM binding z-score: 2.09

Lab note: `CCTACTGGGCCATTCAAAGGTCATTGATCATATG` gave PBM binding z-score of 4.61

response.value for `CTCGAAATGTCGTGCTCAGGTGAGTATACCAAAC` (field: PBM binding z-score) = -0.16

Form field PBM binding z-score, entry `GTACCAAGGTGAACAGGTCGTTGATGAGTAGGCG` : 1.67

The sequence listed as `CGTCCAAGGTCAGGGTCAGTGAAAGAGACTCGAA` shows PBM binding z-score equal to 5.14

Reported PBM binding z-score ( `ATCGAAAGGTCGTGAGGTGAATATACAGAAAGGC` ) = 5.61

// sample `TCATATAGGAAAAAGGTGAAAGTCGGTGTGGTAA` , its PBM binding z-score was 1.5

Memo: `ACTCGGAGGACAAAGGTCAGAGGTACGCCAGTGA` , reported PBM binding z-score: 5.39

// sample `CCTACTGGGCCAGAGGTCATTGATTCCAATGCTC` , its PBM binding z-score was 4.88

// field: PBM binding z-score; key: `GCTATTAGTTGAAAGGGCAACGGAATGATTCTCG` ; value = 1.2

The recorded PBM binding z-score for entry `ACAGACAGGTGAGTGAATGTAACTCAGCTGGACG` equals 0.676

The measured PBM binding z-score associated with `CCTACTGGGCCAAAAAGGTCATTTATGCCGATAA` reads 4.35

Entry `ATCTCTAGGTAAAGTTCGGTGAAAGATCGATAGA` , PBM binding z-score reported as 0.31

Summary for this sequence, `ATCTTTAGGTAACCAAGTTCAGTGAATGCCGAAC` : PBM binding z-score is 0.709

The value of PBM binding z-score measured for the sequence `CGTCCAAGGTCAAAGGTAAGTGAAGAGATGACGG` turned out to be 7.74

Input `GCTGCTAAGTCAGGTTGGTCAGCTAACGGGTACG` . Output PBM binding z-score: -0.344

Record summary for `ATCTCTAGGTAATGTTCAGTGAAAGATCGATAGA` : reported PBM binding z-score = 0.234

# sequence `GGAACGCGGGCATTCGAGTTGATAGCATGGCGAT` ; its PBM binding z-score = -0.381
